Biological target: Serine/threonine-protein kinase PLK1 (Homo sapiens, UniProt P53350)
Sequence (P53350 whole entry): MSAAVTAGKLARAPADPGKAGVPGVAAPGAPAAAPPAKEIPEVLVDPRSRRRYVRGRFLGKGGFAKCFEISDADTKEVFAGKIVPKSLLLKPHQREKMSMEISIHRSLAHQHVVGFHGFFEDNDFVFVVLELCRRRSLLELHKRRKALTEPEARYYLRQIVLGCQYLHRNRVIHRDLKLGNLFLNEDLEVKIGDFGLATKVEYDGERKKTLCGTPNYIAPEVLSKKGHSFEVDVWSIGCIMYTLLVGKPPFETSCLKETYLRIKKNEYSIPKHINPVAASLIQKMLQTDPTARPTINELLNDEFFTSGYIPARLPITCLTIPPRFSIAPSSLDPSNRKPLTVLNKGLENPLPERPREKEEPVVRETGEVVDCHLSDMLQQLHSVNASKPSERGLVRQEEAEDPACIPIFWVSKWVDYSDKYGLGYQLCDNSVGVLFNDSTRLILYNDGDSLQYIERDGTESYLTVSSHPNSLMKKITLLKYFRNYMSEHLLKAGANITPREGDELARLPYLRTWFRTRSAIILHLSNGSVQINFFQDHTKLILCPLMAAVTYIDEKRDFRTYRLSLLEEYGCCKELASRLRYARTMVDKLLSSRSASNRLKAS
Test: Inhibition of recombinant polo-like kinase 1 activity by SDS-PAGE
Measured pIC50 of individual entries
Give only the number. pIC50 is defined as minus log10 of concentration in molar units.

>>> print(df.to_string())
                           substance_smiles                               system_name  meas_value
0  CC(=O)Nc1ccc(Nc2ncc([N+](=O)[O-])c(Nc3ccccc3C(=O)c3ccccc3)n2)cc1  Serine/threonine-protein kinase PLK1 (Homo sapiens, UniProt P53350)        6.05

Exercise: // fetch pIC50 for N#Cc1cc([N+](=O)[O-])c2sc(C(N)=O)[n+]([O-])c2c1 ; system: Serine/threonine-protein kinase PLK1 (Homo sapiens, UniProt P53350)
Key: 5.10

----------
Tested on: BSC-1
Assay: Antimitotic activity against african green monkey BSC1 cells assessed as induction of monopolar spindles by immunofluorescence microscopy
Type: functional, cell-based
Conditions: Chlorocebus aethiops
METRIC NAME: EC50 (µM)
# value in µM; strip the unit string

>>> print(df.to_string())
                           substance_smiles  metric_name  meas_value
0  c1cc(Nc2ccc3c(c2)CCC3)nc(Nc2ccc3ncsc3c2)n1         EC50          30

Okay, now this compound:
Exercise: Determine its reported EC50: CC(=O)Nc1ccc(Nc2ncc([N+](=O)[O-])c(Nc3ccccc3C(=O)c3ccccc3)n2)cc1
Key: 5
